Cited source: PubChem BioAssay

# procedure-summary: viability of PTEN-null HCT116 cells – cell-based, HCT116 clonal line, CellTiter-Glo, pilot screen (AID 824);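 also: 0% = 20 µM Hyamine control and 100% = vehicle cell control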
# cond: HCT116 PTEN-deleted viability, 60 h, at 10 µM, hits give low values
Records with an inconclusive call do not appear.
recorded-metric: viability (%)
The reply should contain only the number, in %.

Worked cases, viability given:
molecule	viability / %
COc1ccccc1-c1cc2nc(C)c(CCC(=O)NCc3ccco3)c(C)n2n1	98.1
COc1ccc(CCNC(=O)c2cnn3ccccc23)c(OC)c1OC	87.8
Cc1ccc(OCCSc2cc(C)nc(N)n2)cc1	96
COc1ccc(C2C(C(C)=O)=C(O)C(=O)N2CCN(C)C)cc1OC (stereo not drawn)	96.9

Prompt: GET /values?readout=viability&item= O=C(CSc1nnnn1-c1ccccc1)CSc1nnnn1-c1ccccc1
Response: 90.1

Prompt: GET /values?readout=viability&item= Cc1ccc2nc(-c3ccccc3)cc(C(=O)O)c2c1
Response: 87.8

Prompt: GET /values?readout=viability&item= C/C=C/COC(=O)c1[nH]c2c(c1C)C(=O)CC(c1ccc(N(C)C)cc1)C2 (stereo not drawn)
Response: 66.6

Prompt: GET /values?readout=viability&item= OC(CNCCc1ccccc1)c1ccccc1 (stereo not drawn)
Response: 94.1

Prompt: GET /values?readout=viability&item= CCOC(=O)Cc1ccc(NS(=O)(=O)c2ccc(SC)cc2)cc1
Response: 88.1

Prompt: GET /values?readout=viability&item= CC(C)Oc1ccc(/C(O)=C2/C(=O)C(=O)N(CCCN3CCOCC3)C2c2ccncc2)cc1 (stereo not drawn)
Response: 89.3

Prompt: GET /values?readout=viability&item= CCN(CC)S(=O)(=O)c1cc(C(=O)Oc2ccccc2OC)ccc1OC
Response: 85.6

Prompt: GET /values?readout=viability&item= O=C(NCCN1CCOCC1)c1ccc2c(c1)N(Cc1ccccc1)CCS2
Response: 94.5

Prompt: GET /values?readout=viability&item= O=C(c1ccco1)N1CCN(C(=O)C2CC(c3ccc(F)cc3)=NO2)CC1 (stereo not drawn)
Response: 105

====

# procedure-summary: RAM pathway blockade in budding yeast – dse1pr::URA3 reporter, 5-FOA selection, pilot screen (AID 869);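 also: 0% = DMSO wells with no growth and 100% = 10 µM 1-NA-PP1 with full growth; RAM network block rescues cells from 5-FOA so hits raise OD615 growth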
# cond: S. cerevisiae dse1pr::URA3 5-FOA growth, OD615, 2 d; at 10 µM; hits give high values; strain carries analog-sensitive mutant Cbk1 kinase
recorded-metric: inhibition (%)
The reply should contain only the number, in %.

Prompt: GET /values?readout=inhibition&item= Nc1cccc(-n2nncc2-c2ccc(Cl)cc2)c1
Response: 1.98

Prompt: GET /values?readout=inhibition&item= Cc1cnc(NC(=O)CSc2nnc(COc3c(C)cccc3C)o2)s1
Response: 1.23

Prompt: GET /values?readout=inhibition&item= CCOC(=O)CN1Cc2cccc(C(=O)O)c2C1=O
Response: 0.535

Prompt: GET /values?readout=inhibition&item= Cn1nnc2cc(C(=O)N3CCCCCC3)ccc21
Response: 0.345

Prompt: GET /values?readout=inhibition&item= CCCN1CC23C=CC(O2)C(C(=O)O)C3C1=O (stereo not given)
Response: 1.96

====

# procedure-summary: S. cerevisiae growth inhibition in permissive medium (OD615), pilot counter-assay for S. cerevisiae lifespan shortening project, permissive growth control (AID 705)
# cond: OD615, 24 h, at 10 µM, hits give high values
recorded-metric: growth inhibition (%)
The reply should contain only the number, in %.

Worked cases, growth inhibition given:
compound	reading
Cn1c(Cc2ccccc2)nnc1SCC(=O)NC1CCCCC1	1.09
COCCCNc1nc2c(c(=O)[nH]c(=O)n2C)n1CC(O)COc1ccccc1C (configuration not stated)	-1.92
c1ccc(-c2nnc(SCc3nc4ccccc4[nH]3)o2)cc1	7.59

Prompt: GET /values?readout=growth inhibition&item= CS(=O)(=O)c1ccc2nc(NC(=O)Cc3ccccc3)sc2c1
Response: -10.9

Prompt: GET /values?readout=growth inhibition&item= Cc1ccc(-c2nc(CSCC(=O)N3CCN(C(=O)c4ccco4)CC3)c(C)o2)cc1
Response: -4.69

Prompt: GET /values?readout=growth inhibition&item= CCN(CCCNS(=O)(=O)c1ccc2c(c1)oc(=O)n2C)c1cccc(C)c1
Response: -12

Prompt: GET /values?readout=growth inhibition&item= CCCCCn1c(CCNC(=O)CCC)nc2ccccc21
Response: -0.135

Prompt: GET /values?readout=growth inhibition&item= CCCc1nnc2n1N=C(c1ccc(-c3cc(Cl)ccc3Cl)o1)CS2
Response: -18.6

Prompt: GET /values?readout=growth inhibition&item= Cc1csc(NC(=O)C(Cc2ccccc2)n2cccc2)n1 (configuration not stated)
Response: -13.9

====

# procedure-summary: H69AR cell proliferation blockers – human, duplicate replicates, primary screen (AID 580);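 also: 100% = mean luminescence of untreated wells and 0% = no signal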
# cond: H69AR lung tumor cells viability, ATP luminescence, 72 h; at 10 µM; hits give low values
The source made the active and inactive calls.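 The calls were made as follows: active = viability at or under a set limit in both replicates, limit being median viability minus 3 SD (cut at about 48% in these data, passing the limit was not always enough); inconclusive = at or under the limit in just one replicate; inactive = at or above the limit in both replicates.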
recorded-metric: viability

Worked cases, viability given:
compound	reading
CN(C)C(=O)N1CCN(C(=O)c2ccco2)CC1	101% (inactive)
CC1CCN(C(=O)CSc2nnc(Cc3cc(=O)[nH]c(=O)[nH]3)n2-c2ccc(Cl)cc2)CC1	101% (inactive)
CCOC(=O)CN1CC23C=CC(O2)C(C(=O)Nc2ccc(C(C)=O)cc2)C3C1=O (configuration not stated)	96.4% (inactive)
CCOC(=O)N1CCN(C(=O)c2ccc3nc4ccsc4c(=O)n3c2)CC1	89.4% (inactive)

Prompt: GET /values?readout=viability&item= CCOC(=O)c1sc2nc(NC(=O)C(C)(C)C)sc2c1C
Response: 79.3% (inactive)

Prompt: GET /values?readout=viability&item= CCCCOC(=O)c1[nH]c2c(c1C)C(=O)CC(c1cc(OC)c(OC)c(OC)c1)C2 (configuration not stated)
Response: 72.4% (inactive)

====

# target-entity: Receptor tyrosine-protein kinase erbB-2 (Homo sapiens)
# procedure-summary: Her2 expression decrease, cell viability multiplex – SKBR3 breast tumor cells, AlphaScreen, ATP viability, primary screen (AID 461);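 also: lower value means less Her2 protein in the cells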
# cond: 18-24 h, at 10 µM, hits give low values
recorded-metric: Her2 level (%)
The reply should contain only the number, in %.

compound	target-entity	reading
CCCCCCn1c(SCC(=O)OC)nc2c1c(=O)[nH]c(=O)n2C	Receptor tyrosine-protein kinase erbB-2 (Homo sapiens)	90
Cc1ccc(-c2noc(COc3ccccc3C)n2)cc1	Receptor tyrosine-protein kinase erbB-2 (Homo sapiens)	92

Field: next compound
Prompt: Give recorded Her2 level with Receptor tyrosine-protein kinase erbB-2 (Homo sapiens) for the following compound: COC(=O)C1(C(F)(F)F)N=C2Sc3ccccc3N2C(N2CCOCC2)=N1 (stereo not drawn)
Response: 89

====

# procedure-summary: doxorubicin toxicity protection in MRP-1 cells – H69AR cells, CellTiter-Glo, duplicate, MRP-1 activator project, pilot screen (AID 807);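 also: compound pretreatment 18-22 h then 72 h combined with doxorubicin; 0% = doxorubicin alone and 100% = vehicle without doxorubicin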
# cond: H69AR viability with doxorubicin, CellTiter-Glo luminescence; at 10 µM; hits give high values
Parameter: viability increase. Scope: all listed entries.
The reply should contain only the number, in %.

Worked cases, viability increase given:
compound	viability increase, %
Cc1ccc(-c2nc(CSCC(=O)N3CCN(C(=O)c4ccco4)CC3)c(C)o2)cc1	-1.03
COc1cccc(C2c3c(oc4ccc(F)cc4c3=O)C(=O)N2CCCN2CCOCC2)c1 (configuration not stated)	-1.59
O=C1c2ccccc2C(Nc2ccc3c(c2)OCO3)N1Cc1ccc2c(c1)OCO2 (configuration not stated)	-0.78
Cc1cc(C)nc(SCC(=O)N2CCCCC2)n1	0.71
Cc1cc(NS(=O)(=O)c2ccccc2)no1	0.56

Prompt: GET /values?readout=viability increase&item= CC1(C)CC(=O)C2=C(C1)OC(N)=C(C#N)C2c1ccc(OC(=O)N2CCOCC2)cc1 (configuration not stated)
Response: -1.1

Prompt: GET /values?readout=viability increase&item= O=C(CN1CCOc2ccccc21)NCc1ccccc1
Response: -6.69

Prompt: GET /values?readout=viability increase&item= Cc1ccc(-n2ncc3c(N4CCCC(C)C4)ncnc32)c(C)c1 (configuration not stated)
Response: -8.5

Prompt: GET /values?readout=viability increase&item= CCOC(=O)c1ccc(-n2c(C)nc3c(cnn3-c3ccccc3C)c2=O)cc1
Response: -0.28

Prompt: GET /values?readout=viability increase&item= O=C(c1ccc(CS(=O)(=O)c2c(Cl)cccc2Cl)o1)N1CCCC1
Response: -1.96

Prompt: GET /values?readout=viability increase&item= CC(CCc1ccccc1)NC(=O)C1CCCN(c2nnc(-n3cccc3)s2)C1 (configuration not stated)
Response: -1.84

Prompt: GET /values?readout=viability increase&item= CC(=O)Nc1ccc(S(=O)(=O)Nc2nc3ccccc3nc2Sc2nncn2C)cc1
Response: -2.89

====

# procedure-summary: S. cerevisiae growth inhibition in permissive medium (OD615), pilot counter-assay for S. cerevisiae lifespan shortening project, permissive growth control (AID 705)
# cond: OD615, 24 h, at 10 µM, hits give high values
Parameter: growth inhibition. Scope: all listed entries.
The reply should contain only the number, in %.

Worked cases, growth inhibition given:
molecule	growth inhibition [%]
COCCOC(=O)c1[nH]c2c(c1C)C(=O)CC(c1ccco1)C2 (stereo not drawn)	-16
CCOC(=O)Cc1ccc(NS(=O)(=O)c2ccc(SC)cc2)cc1	6.06
Cc1noc(C)c1S(=O)(=O)N1CCN(Cc2ccc3c(c2)OCO3)CC1	-5.76
COc1ccc(NC(=O)C2CCCN(S(=O)(=O)c3cccc4cccnc34)C2)cc1OC (stereo not drawn)	-1.21
COc1ccc(CNc2oc(-c3ccccc3)nc2C#N)cc1	0.305
O=C1c2ccccc2S(=O)(=O)N1CC(O)Cn1c2ccccc2c2ccccc21 (stereo not drawn)	-2.73

Prompt: GET /values?readout=growth inhibition&item= CC(=O)c1cc2c(cc1NC(=O)CN1CCN(C(=O)c3ccco3)CC1)OCO2
Response: 0.565

Prompt: GET /values?readout=growth inhibition&item= CC(C)c1nnc(NC(=O)C2CCCCC2)s1
Response: -3.55
